Source listed as ChEMBL document CHEMBL1147039.

- System: Type IV secretion-like conjugative transfer relaxase protein TraI (Escherichia coli (strain SMS-3-5 / SECEC)), B1LRJ1 [Y16F]
- Sequence (B1LRJ1 entry or part of it Y16F): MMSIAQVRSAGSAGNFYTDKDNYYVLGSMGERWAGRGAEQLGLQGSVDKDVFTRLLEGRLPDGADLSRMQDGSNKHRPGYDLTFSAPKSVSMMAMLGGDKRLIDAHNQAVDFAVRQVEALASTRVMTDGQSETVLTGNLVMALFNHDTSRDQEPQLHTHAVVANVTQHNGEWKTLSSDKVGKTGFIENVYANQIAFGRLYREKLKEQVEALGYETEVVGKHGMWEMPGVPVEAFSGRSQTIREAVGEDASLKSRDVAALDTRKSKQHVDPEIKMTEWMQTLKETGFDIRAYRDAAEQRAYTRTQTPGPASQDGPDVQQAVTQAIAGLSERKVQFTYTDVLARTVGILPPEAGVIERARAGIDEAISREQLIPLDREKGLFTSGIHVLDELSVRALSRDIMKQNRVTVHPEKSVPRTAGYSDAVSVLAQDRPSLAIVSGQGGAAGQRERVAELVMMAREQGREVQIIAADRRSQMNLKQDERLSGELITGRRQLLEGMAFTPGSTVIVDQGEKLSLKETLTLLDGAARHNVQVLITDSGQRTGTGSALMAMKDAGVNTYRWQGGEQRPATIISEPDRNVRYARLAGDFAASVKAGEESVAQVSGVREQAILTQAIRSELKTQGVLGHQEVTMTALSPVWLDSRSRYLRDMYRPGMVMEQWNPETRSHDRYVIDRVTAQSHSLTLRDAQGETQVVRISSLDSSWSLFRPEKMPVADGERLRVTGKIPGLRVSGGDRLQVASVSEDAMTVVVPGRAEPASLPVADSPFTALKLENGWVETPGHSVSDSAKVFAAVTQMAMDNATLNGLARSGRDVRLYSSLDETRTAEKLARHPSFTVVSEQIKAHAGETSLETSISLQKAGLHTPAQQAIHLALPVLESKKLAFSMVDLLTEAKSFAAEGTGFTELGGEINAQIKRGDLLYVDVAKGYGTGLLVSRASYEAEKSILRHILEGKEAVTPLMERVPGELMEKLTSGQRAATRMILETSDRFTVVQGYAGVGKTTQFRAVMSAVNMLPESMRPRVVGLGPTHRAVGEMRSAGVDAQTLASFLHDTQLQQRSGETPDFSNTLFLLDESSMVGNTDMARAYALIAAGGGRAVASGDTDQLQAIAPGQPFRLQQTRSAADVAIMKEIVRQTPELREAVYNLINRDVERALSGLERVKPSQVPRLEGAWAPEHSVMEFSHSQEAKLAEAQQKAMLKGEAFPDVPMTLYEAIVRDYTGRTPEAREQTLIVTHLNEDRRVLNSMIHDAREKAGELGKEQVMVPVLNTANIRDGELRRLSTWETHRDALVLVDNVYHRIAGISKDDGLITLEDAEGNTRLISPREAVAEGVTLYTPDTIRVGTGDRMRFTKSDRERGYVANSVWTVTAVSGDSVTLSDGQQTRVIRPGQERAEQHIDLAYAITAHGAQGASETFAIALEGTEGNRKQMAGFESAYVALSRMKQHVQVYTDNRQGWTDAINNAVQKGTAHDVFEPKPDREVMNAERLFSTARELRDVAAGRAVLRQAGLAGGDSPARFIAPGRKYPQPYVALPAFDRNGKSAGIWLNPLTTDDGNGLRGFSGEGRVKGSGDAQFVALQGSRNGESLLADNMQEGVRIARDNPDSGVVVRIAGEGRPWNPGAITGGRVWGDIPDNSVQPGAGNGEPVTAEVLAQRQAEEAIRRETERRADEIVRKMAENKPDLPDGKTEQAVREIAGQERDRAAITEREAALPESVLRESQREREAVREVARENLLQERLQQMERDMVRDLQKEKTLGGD
- experiment-description: Inhibition of Escherichia coli F plasmid TraI relaxase Y16F mutant assessed as oriT ssDNA cleavage at 200 nM
Active and inactive are the calls of the source. No cut-off for these calls is given here.
Just give me one of these, please: active, inactive

Solved entries (count: 3):
{"record-smiles": "O=P(O)(O)C(Cl)(Cl)P(=O)(O)O", "cat": "active"}
{"record-smiles": "CC(O)(P(=O)(O)O)P(=O)(O)O", "cat": "active"}
{"record-smiles": "NCCC(O)(P(=O)(O)O)P(=O)(O)O", "cat": "inactive"}

Now consider the entry below.
Incoming: Status in this test for "NCCCCCC(O)(P(=O)(O)O)P(=O)(O)O" ?
Outgoing: inactive

---

- assay-system: Type IV secretion-like conjugative transfer relaxase protein TraI (Escherichia coli (strain SMS-3-5 / SECEC), UniProt B1LRJ1, Y16F)
- experiment-description: Inhibition of Escherichia coli F plasmid TraI relaxase Y16F mutant assessed as oriT ssDNA cleavage by competitive inhibition assay
# reported pKi; entries follow
// field semantics: pKi = negative decimal log of concentration (mol/L)

See these solved cases before continuing.
{"molecule": "O=P(O)(O)C(Cl)(Cl)P(=O)(O)O", "pKi": 8.52}
{"molecule": "O=P(O)(O)NP(=O)(O)O [IMIDODIPHOSPHATE]", "pKi": 8.70}
{"molecule": "CC(O)(P(=O)(O)O)P(=O)(O)O", "pKi": 8.52}

We now examine a further molecule.
Incoming: I am curious: what pKi value has been reported for "O=P(O)(O)CP(=O)(O)O" ?
Outgoing: 8.52

---

- Test system: Escherichia coli
- experiment-description: Selectivity ratio, ratio of EC50 for Escherichia coli JS4 to ratio of EC50 for inhibition of conjugate DNA transfer between Escherichia coli JS10 and Escherichia coli JS4
- Type: functional
endpoint: Ratio EC50
Respond with the number and no other words.

Incoming: Ratio EC50 of "O=P(O)(O)C(Cl)(Cl)P(=O)(O)O" on Escherichia coli?
Outgoing: 26000

Incoming: Please provide the recorded Ratio EC50 for O=P(O)(O)NP(=O)(O)O [IMIDODIPHOSPHATE] , tested on Escherichia coli.
Outgoing: 20

Incoming: Reported Ratio EC50 for Escherichia coli, given "O=P(O)(O)CNCP(=O)(O)O" ?
Outgoing: 9000

Incoming: Tell me reported Ratio EC50 for "COP(=O)(OC)c1ccccc1P(=O)(OC)OC" , tested with Escherichia coli.
Outgoing: 7100

Incoming: Form field - read-out: Ratio EC50; system: Escherichia coli; submitted item: "CC(O)(P(=O)(O)O)P(=O)(O)O"
Outgoing: 1100

Incoming: Hi! What's the reported Ratio EC50 for "O=P(O)(O)CP(=O)(O)O" on Escherichia coli?
Outgoing: 20
